Where do these numbers come from? They come from PubChem BioAssay (NCATS).

- Tested on: PC15
- METHOD_DESCRIPTION: qHTS profiling for inhibitors of Plasmodium falciparum proliferation (AID 504749); also: nearly all actives have a fitted effect of over 60% in size
- DETAILS: P. falciparum in erythrocytes, SYBR Green DNA, 72 h; series mostly up to 28.7 µM
Inconclusive results are not listed. Activity calls are given as the source filed them. Calls follow the shape of the dose curve; as a rule, active = well fitted inhibition curve with a large enough effect; inconclusive = small, poorly fitted or top-dose-only effect; inactive = flat fitted curve, though single readings scatter.
Tick one outcome: t (active), f (inactive)

Task item: For COc1cc(C(=O)NCCCCCC(=O)O)cc(OC)c1OC , which call appears in the assay record?
Reply: f

Task item: // param item: O=C(Cn1ccnc1[N+](=O)[O-])NCCO ; yields the recorded call
Reply: f

Task item: Returns: the outcome recorded for FC(F)(F)C(Cl)Br (configuration not stated) in this assay.
Reply: f

Task item: // outcome(item) with item = NNC(=O)CP(=O)(c1ccccc1)c1ccccc1
Reply: f

Task item: Tell me the recorded outcome of this test for C[C@@H](N)C(=O)O .
Reply: f

Task item: Assay outcome for NS(=O)(=O)c1cc(-c2nn[nH]n2)c(NCc2cccs2)cc1Cl : what was it?
Reply: f

Task item: What classification did CC(=O)N[C@@H](Cc1ccc(O)cc1)C(=O)O end up with in this test?
Reply: f

Task item: Outcome logged for Cc1onc(-c2ccccc2)c1-c1ccc(S(N)(=O)=O)cc1 in this assay:
Reply: f

Task item: Each compound tested received a call. Report the one for Nc1ccc(S(=O)(=O)c2ccc(N)cc2)cc1 .
Reply: f

Task item: Hello, I am checking results. What call was entered for C[N+](C)(C)CC[N+]1(C)Cc2c(Cl)c(Cl)c(Cl)c(Cl)c2C1 ?
Reply: f

Task item: Recorded call for O=C(c1ccccc1)C(O)c1ccccc1 (configuration not stated) ?
Reply: f

Task item: In this assay, the call recorded for O=C(NCCCN1CCOCC1)c1ccc(Cl)cc1 was what?
Reply: f

Task item: Each compound tested received a call. Report the one for Cc1ccc(S(=O)(=O)NC(=O)NC2CCCCC2)cc1 .
Reply: f

Task item: // param item: Cc1cc(OI)c(C(C)C)cc1-c1cc(C(C)C)c(OI)cc1C ; yields the recorded call
Reply: t

Task item: # lookup: test call for CC(CN(C)C)C(C)(O)Cc1ccc(Cl)cc1 (configuration not stated)
Reply: f

Task item: What did this assay record as the result for O=C(O)Cc1cn(-c2ccccc2)nc1-c1ccc(Cl)cc1 ?
Reply: f

Task item: # outcome recorded in this test, key = CC(=O)Nc1ccccc1
Reply: f

Task item: Given COc1ccc(Cc2cnc(N)nc2N)cc1OC , state the outcome it received in this test.
Reply: f

Task item: Test call for this compound, please: O=C(O)Cc1ccc(CCNS(=O)(=O)c2ccc(Cl)cc2)cc1
Reply: f

Task item: What is the recorded call for this compound in the test? O=C(O)CCCc1ccccc1
Reply: f

Task item: What is the recorded call for this compound in the test? NS(=O)(=O)c1cc2c(cc1C(F)(F)F)NCNS2(=O)=O
Reply: f

Task item: // outcome(item) with item = CCCCCC(N)=O
Reply: f

Task item: Status in this test for CCN(CC)S(=O)(=O)c1ccc(C(=O)O)cc1 ?
Reply: f

Task item: Fill in: this test's call for O=C(OOC(=O)c1ccccc1)c1ccccc1 is ___
Reply: f

Task item: Answer briefly: the call reported for C[C@H]1COc2c(C3(N)CC3)c(F)cc3c(=O)c(C(=O)O)cn1c23 in this assay.
Reply: f

Task item: Can you look up the reported call for Cc1ccccc1N=Nc1ccc(N=Nc2c(O)ccc3ccccc23)c(C)c1 for me?
Reply: f

Task item: How was CCCOC(=O)c1ccc(N)cc1 classified in this test?
Reply: f
